Assay: Single dose 300 mg / 450 mg pharmacokinetic, safety and tolerability study in healthy male and female subjects
Settings: female, human, plasma, po, 300 mg
Attribute Measured: concentration at 8 h
Form field: result (number plus unit)

Field concentration at 8 h (entry O=C1NCC2(c3ccc(Cl)c(Cl)c3)CC12 (stereo not shown) ) reads 2210 ng/mL

----------
Assay: 2-week rat toxicology and toxicokinetic study
Format: in vivo
Details: male, Crl:CD(SD)IGS BR, rat, in vivo, po, 10 mg/kg/day, males, 10 mg/kg/day, Day 0; read-out: AUC0-24
Attribute Measured: AUC(0-t) (ng·h/mL)
Only the number, expressed in ng·h/mL, is required.

Value of AUC(0-t) reported for the molecule Clc1ccc([C@]23CNC[C@H]2C3)cc1Cl is 7880

----------
Assay: 26-week rat toxicity and toxicokinetic study
Type: in vivo
Conditions: female, Crl:CD(SD)IGS BR, rat, in vivo, po, […], females, […], Day 177
Attribute Measured: Tmax (h)
Lab book: enter the figure in h, no units written.

For this compound ( Clc1ccc([C@]23CNC[C@H]2C3)cc1Cl ), measured Tmax is 1

----------
Experiment: 14-day mouse toxicity and toxicokinetic study
Details: both, Crl:CD-1(ICR) BR, in vivo, po
Attribute Measured: NOAEL at 14 days (mg/kg/day)
Field format: number, assumed mg/kg/day, no unit text.

Measured NOAEL at 14 days, Clc1ccc([C@]23CNC[C@H]2C3)cc1Cl : 100

----------
Assay: Single-dose (25 mg) gender study in males and females (DOV-947-005)
Format: in vivo, human
Conditions: female, human, in vivo; single oral dose 25 mg; Females (N = 38)
Attribute Measured: AUC(0-t) (ng·h/mL)
Supply the numeric figure in ng·h/mL, leaving out any unit text.

Lab book: AUC(0-t) of Clc1ccc([C@]23CNC[C@H]2C3)cc1Cl [amitifadine] noted as 1490

----------
Assay: 13-week dog toxicity and toxicokinetic study
Assay type: in vivo
Conditions: male, beagle, dog, in vivo, po, 20 mg/kg/day, males, 20 mg/kg/day, Day 0
Attribute Measured: Tmax (h)
Quick note: give the figure in h, leave out the unit.

For Clc1ccc([C@]23CNC[C@H]2C3)cc1Cl [amitifadine] the compound record lists Tmax as 1

----------
Test: Single dose 300 mg / 450 mg pharmacokinetic, safety and tolerability study in healthy male and female subjects
Conditions: female, human, plasma, po, 300 mg
Attribute Measured: MRT inf (h)
Field: numeric (h). Do not append units.

Noted for Clc1ccc([C@]23CNC[C@H]2C3)cc1Cl : its MRT inf reads 6.51

----------
Assay: Single dose 300 mg / 450 mg pharmacokinetic, safety and tolerability study in healthy male and female subjects
Conditions: male, human, plasma, po, 300 mg
Attribute Measured: concentration at 24 h (ng/mL)
Field format: number, assumed ng/mL, no unit text.

Record O=C1NCC2(c3ccc(Cl)c(Cl)c3)CC12 (stereo not shown) , field concentration at 24 h: 820

----------
Test: 2-week rat toxicology and toxicokinetic study
Type: in vivo
Details: male, Crl:CD (SD)IGS BR, rat, in vivo, po, 40 mg/kg/day, males, 40 mg/kg/day, Day 0
Attribute Measured: Tmax (h)
Supply the numeric figure in h, leaving out any unit text.

Item: Clc1ccc([C@]23CNC[C@H]2C3)cc1Cl [amitifadine] | Tmax: 1
